src = ChEMBL document CHEMBL1201862

Tested on: SK-MEL-28
Test: NCI tumour cell line growth inhibition, 48 h
Activity calls are given as the source filed them. Rule as the data show it: active = GI50 up to about 1.1 µM and inactive = higher.

{"molecule": "Cc1cc(C)c2c(=N)c3ccccc3n(CCCCCCCCn3c4ccccc4c(=N)c4c(C)cc(C)nc43)c2n1", "GI50": "1.6 µM (inactive)"}
{"molecule": "COc1ccc(C(=O)O/N=C2\\CCCC\\C2=C/c2ccccc2)cc1", "GI50": "> 100 µM (inactive)"}
{"molecule": "COc1ccc2c(c1)[nH]c1c3ccc(OC)cc3oc(=O)c21", "GI50": "> 100 µM (inactive)"}
{"molecule": "COC(=O)CCC(=O)c1ccc2c(c1)CCC2", "GI50": "> 100 µM (inactive)"}
{"molecule": "COC(=O)c1nn(-c2ccccc2)c(=O)cc1N=[N+]=[N-]", "GI50": "> 100 µM (inactive)"}
{"molecule": "COC(=O)C1ON2C(C1C(=O)OC)C(C)(C)N(O)C2(C)C (stereo unspecified)", "GI50": "> 10 µM (inactive)"}
{"molecule": "CCOC(=O)C1=C(N)N(c2ccccc2)/C(=C2\\SC(=S)N(c3ccc(C)cc3)C2=O)S1", "GI50": "23.4 µM (inactive)"}
{"molecule": "C=CCCCCCCCCCOC1C=CC(OC(C)=O)C(COC(C)=O)O1 (stereo unspecified)", "GI50": "> 100 µM (inactive)"}
{"molecule": "COc1cccc(-c2cc(O)c3cc(NC(C)=O)ccc3n2)c1", "GI50": "33.2 µM (inactive)"}
{"molecule": "Cc1ccc(NC(=O)CCc2cc(C(C)(C)C)nc(S)n2)cc1C", "GI50": "> 100 µM (inactive)"}
{"molecule": "CCNC(=O)/C(=C/c1ccc(OC)cc1)c1cc(OC)c(OC)c(OC)c1", "GI50": "5.79 µM (inactive)"}

###

System: SK-MEL-28
Assay: NCI tumour cell line growth inhibition, 48 h
Active and inactive are the calls of the source. No stated cut-off is given here; in the data, active = GI50 up to about 1.1 µM and inactive = higher.
Parameter GI50: see the listing below.

{"molecule": "ClCCCN1CCN(CCCl)CC1", "experimental-system": "SK-MEL-28", "GI50": "491 µM (inactive)"}
{"molecule": "NCC(=O)Nc1ccccc1", "experimental-system": "SK-MEL-28", "GI50": "> 100 µM (inactive)"}
{"molecule": "COc1cc(C(C)c2cc3c(cc2OCCN)OCO3)cc(OC)c1OC (configuration not stated)", "experimental-system": "SK-MEL-28", "GI50": "28.2 µM (inactive)"}
{"molecule": "COc1ccc2nc(-c3ccc(N)cc3)sc2c1", "experimental-system": "SK-MEL-28", "GI50": "> 100 µM (inactive)"}
{"molecule": "COc1ccc(C[C@@H]2NC[C@@H](O)[C@@H]2OC(C)=O)cc1", "experimental-system": "SK-MEL-28", "GI50": "0.0206 µM (active)"}
{"molecule": "COC(=O)/C(C#N)=C1\\CCC(O)N1 (configuration not stated)", "experimental-system": "SK-MEL-28", "GI50": "> 100 µM (inactive)"}
{"molecule": "CC1=NN(c2nc(N)nc(/C(C#N)=C\\c3csc([N+](=O)[O-])c3)n2)C(C)(C)C1", "experimental-system": "SK-MEL-28", "GI50": "59 µM (inactive)"}

###

Tested on: 786-0
Experiment: NCI tumour cell line growth inhibition, 48 h
The source made the active and inactive calls. Rule as the data show it: active = GI50 up to about 1.1 µM and inactive = higher.
Classes used: 1 (yes) for active, 0 (no) for inactive

{"molecule": "COc1ccc(N(C(=O)Nc2ccc(Cl)c(Cl)c2)C2c3cccn3C(=O)N2c2ccc(Cl)c(Cl)c2)cc1 (stereo not given)", "experimental-system": "786-0", "answer-label": "0 (no)"}
{"molecule": "O=C(O)c1ccccc1CC1Cc2cc3c(cc2C1)CCC3", "experimental-system": "786-0", "answer-label": "0 (no)"}
{"molecule": "COc1cc2c(cc1OCCCOc1cc3c(cc1OC)C(=O)N1CCC[C@H]1CN3)N=C[C@@H]1CCCN1C2=O", "experimental-system": "786-0", "answer-label": "1 (yes)"}
{"molecule": "COC(=O)CCC(=O)NC1=C(Nc2ccc(OC)cc2)C(=O)c2ccccc2C1=O", "experimental-system": "786-0", "answer-label": "0 (no)"}
{"molecule": "C/C(=C\\CO)CC/C=C(\\C)CNc1c(F)c(F)c(F)c(F)c1F", "experimental-system": "786-0", "answer-label": "0 (no)"}
{"molecule": "CCOC(=O)C1(NC(=O)OC(C)(C)C)CCc2[nH]oc(=O)c2C1 (stereo not given)", "experimental-system": "786-0", "answer-label": "0 (no)"}
{"molecule": "C=C(CCC(=O)N(CCc1c[nH]c2ccccc12)C(=O)c1ccccc1CSCC)C(=O)OC", "experimental-system": "786-0", "answer-label": "0 (no)"}
{"molecule": "Cc1ccc(C(=O)N/N=C(\\N=N\\c2ccc(C(=O)O)cc2)c2ccc(N(CCC#N)CCC#N)cc2C)cc1", "experimental-system": "786-0", "answer-label": "0 (no)"}
{"molecule": "COc1ccc(C2[C@@H](Cl)C(=O)N2c2ccc(OC)cc2)cc1 (stereo not given in full)", "experimental-system": "786-0", "answer-label": "0 (no)"}
{"molecule": "OCCCSCCO", "experimental-system": "786-0", "answer-label": "0 (no)"}

###

Tested on: SW-620
Assay: NCI tumour cell line growth inhibition, 48 h
Calls of active or inactive are those of the source. Cut-off read from the data, not from the text of the source: active = GI50 up to about 1.1 µM and inactive = higher.
Classes used: label 1 for active, label 0 for inactive

{"compound": "O=C1Nc2ccccc2/C1=N\\c1cccc2ncccc12", "answer-label": "label 0"}
{"compound": "O=C(O)C1(Cc2ccccc2)Cc2cc3c(cc2C1)CCC3", "answer-label": "label 0"}
{"compound": "OCCSCC/C(=N\\N=C(/CCSCCO)c1ccccc1)c1ccccc1", "answer-label": "label 0"}
{"compound": "COc1cc2c(cc1OCCCOc1cc3c(cc1OC)C(=O)N1CCC[C@H]1CN3)N=C[C@@H]1CCCN1C2=O", "answer-label": "label 1"}
{"compound": "COc1ccc(CNc2nc3ccc(C(F)(F)F)cc3nc2-c2ccccc2)cc1OC", "answer-label": "label 0"}
{"compound": "C#CCNC(=O)NCCCC(NC(C)=O)C(=O)NCc1ccccc1 (centres undefined)", "answer-label": "label 0"}
{"compound": "CC1CCC2(NC1)OC1CC3C4CC=C5CC(OC6OC(CO)C(OC7OC(C)C(O)C(O)C7O)C(O)C6OC6OC(C)C(O)C(O)C6O)CCC5(C)C4CCC3(C)C1C2C (centres undefined)", "answer-label": "label 0"}
{"compound": "NC(=O)SCC(=O)Nc1ccc2ncccc2c1", "answer-label": "label 0"}
{"compound": "O=c1[nH]c(=O)n(C2CC(O)C(COP(=O)(O)OC3CC(n4cc(F)c(=O)[nH]c4=O)OC3COP(=O)(O)OC3CC(n4cc(F)c(=O)[nH]c4=O)OC3COP(=O)(O)OC3CC(n4cc(F)c(=O)[nH]c4=O)OC3COP(=O)(O)OC3CC(n4cc(F)c(=O)[nH]c4=O)OC3COP(=O)(O)OC3CC(n4cc(F)c(=O)[nH]c4=O)OC3COP(=O)(O)OC3CC(n4cc(F)c(=O)[nH]c4=O)OC3COP(=O)(O)OC3CC(n4cc(F)c(=O)[nH]c4=O)OC3COP(=O)(O)OC3CC(n4cc(F)c(=O)[nH]c4=O)OC3COP(=O)(O)OC3CC(n4cc(F)c(=O)[nH]c4=O)OC3CO)O2)cc1F (centres undefined)", "answer-label": "label 0"}

###

Tested on: SK-MEL-2
Test: NCI tumour cell line growth inhibition, 48 h
Active and inactive are the calls of the source. Cut-off read from the data, not from the text of the source: active = GI50 up to about 1.1 µM and inactive = higher.
property-name: GI50

{"compound": "C=C1C(=O)O[C@@H]2[C@H](O)[C@@H](C)[C@@H]3C=CC(=O)[C@@]3(C)[C@H](OC(=O)C=C(C)C)[C@H]12", "endpoint-value": "1.32 µM (inactive)"}
{"compound": "CC1(C)C2CCC(N)(C2)C1O (centres undefined)", "endpoint-value": "> 100 µM (inactive)"}
{"compound": "c1cc(-c2ccc(Oc3ccc(-c4ccncc4)cc3)cc2)ccn1", "endpoint-value": "5.38 µM (inactive)"}
{"compound": "Cc1cc2c(O)nc(N)nc2nc1C", "endpoint-value": "> 100 µM (inactive)"}
{"compound": "Cc1ccc(N/C(=C(/C(Cl)=C(Cl)Cl)[N+](=O)[O-])n2nnc3ccccc32)cc1", "endpoint-value": "17.7 µM (inactive)"}
{"compound": "Cc1ccccc1Cn1nc2ccccc2cc1=O", "endpoint-value": "> 100 µM (inactive)"}
{"compound": "Cc1nnc2n1N=C(CC(=O)c1ccc(O)cc1O)CN2N", "endpoint-value": "> 100 µM (inactive)"}
{"compound": "Cc1ccc(I)cc1N=C=S", "endpoint-value": "17.8 µM (inactive)"}
{"compound": "Cc1cc(OC(=O)Nc2cccc3ccccc23)c(C(C)C)cc1C(=S)Nc1ccccc1", "endpoint-value": "13.7 µM (inactive)"}
{"compound": "CC(=O)Nc1ccc(C(=O)NN2C(=O)C(Cl)C2c2ccccc2)cc1 (centres undefined)", "endpoint-value": "> 100 µM (inactive)"}
{"compound": "Fc1cccc2c1cc1ccc3cccc4ccc2c1c34", "endpoint-value": "> 100 µM (inactive)"}
{"compound": "O=c1[nH]c(-n2[nH]c3c(c2=O)CCCC3)nc(O)c1-c1ccccc1", "endpoint-value": "> 100 µM (inactive)"}
{"compound": "CC(C)(C)C1CCC2c3c([nH]c4ccccc34)C3C(=O)N(c4ccc5c(c4)C(=O)c4ccccc4C5=O)C(=O)C3C2C1 (centres undefined)", "endpoint-value": "> 100 µM (inactive)"}
{"compound": "COc1ccc(C(=O)Nc2ccccc2C#N)cc1", "endpoint-value": "> 100 µM (inactive)"}
{"compound": "NC(=O)NC(CC(=O)O)C(=O)O (centres undefined)", "endpoint-value": "> 100 µM (inactive)"}
{"compound": "CC(C)C(=O)/C=C/c1ccc(Cl)cc1Cl", "endpoint-value": "14.2 µM (inactive)"}
{"compound": "C=C(C(N)=O)c1ccc([N+](=O)[O-])o1", "endpoint-value": "5.93 µM (inactive)"}
{"compound": "CC(C(N)=O)N(C)C(=O)c1cnc2ccccc2c1 (centres undefined)", "endpoint-value": "> 100 µM (inactive)"}
{"compound": "CC/N=C(/C#N)NCC", "endpoint-value": "> 100 µM (inactive)"}
